B1: DnaJ homolog subfamily C member 5, residues 16 to 77; numbered along this chain, Q9H3Z4 (parent)
chain: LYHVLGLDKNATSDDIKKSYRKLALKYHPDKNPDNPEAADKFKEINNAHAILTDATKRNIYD

Variants of: B1
Assay: abundance fitness (aPCA) (normalised: wild type 0, dead -1); higher = more abundant; growth selection in yeast, the domain comes from the species named
Conditions: Homo sapiens
Provide the recorded abundance fitness for the entries that follow.
API doc: respond with a numeric literal and nothing else, no unit.

*Q* Item D54E has what recorded abundance fitness?
*A* -0.278

*Q* Item H3P has what recorded abundance fitness?
*A* -0.602

*Q* Item K41A has what recorded abundance fitness?
*A* -0.222

*Q* Item Y20P has what recorded abundance fitness?
*A* -0.093

*Q* Item A38D has what recorded abundance fitness?
*A* -0.137

*Q* Item D30C has what recorded abundance fitness?
*A* -0.221

*Q* Item K9V has what recorded abundance fitness?
*A* -0.004

*Q* Item A55V has what recorded abundance fitness?
*A* -0.14

*Q* Item A55G has what recorded abundance fitness?
*A* -0.151

*Q* Item P29G has what recorded abundance fitness?
*A* -0.381

*Q* Item T56F has what recorded abundance fitness?
*A* -0.499

*Q* Item D34H has what recorded abundance fitness?
*A* -0.411

*Q* Item K22Q has what recorded abundance fitness?
*A* 0.217

*Q* Item K26E has what recorded abundance fitness?
*A* 0.155

*Q* Item D14E has what recorded abundance fitness?
*A* -0.048

*Q* Item G6F has what recorded abundance fitness?
*A* -0.985

*Q* Item N59F has what recorded abundance fitness?
*A* -0.151

*Q* Item Y20S has what recorded abundance fitness?
*A* -0.086

*Q* Item K17Q has what recorded abundance fitness?
*A* -0.063

*Q* Item A11T has what recorded abundance fitness?
*A* -0.553

*Q* Item V4D has what recorded abundance fitness?
*A* -0.458

*Q* Item P33Q has what recorded abundance fitness?
*A* -0.063
